All figures here come from patent US9718828B2.

- tested system: Btk enzyme (His-Btk) (Homo sapiens (Human), UniProt Q06187)
- Sequence (Q06187 whole entry): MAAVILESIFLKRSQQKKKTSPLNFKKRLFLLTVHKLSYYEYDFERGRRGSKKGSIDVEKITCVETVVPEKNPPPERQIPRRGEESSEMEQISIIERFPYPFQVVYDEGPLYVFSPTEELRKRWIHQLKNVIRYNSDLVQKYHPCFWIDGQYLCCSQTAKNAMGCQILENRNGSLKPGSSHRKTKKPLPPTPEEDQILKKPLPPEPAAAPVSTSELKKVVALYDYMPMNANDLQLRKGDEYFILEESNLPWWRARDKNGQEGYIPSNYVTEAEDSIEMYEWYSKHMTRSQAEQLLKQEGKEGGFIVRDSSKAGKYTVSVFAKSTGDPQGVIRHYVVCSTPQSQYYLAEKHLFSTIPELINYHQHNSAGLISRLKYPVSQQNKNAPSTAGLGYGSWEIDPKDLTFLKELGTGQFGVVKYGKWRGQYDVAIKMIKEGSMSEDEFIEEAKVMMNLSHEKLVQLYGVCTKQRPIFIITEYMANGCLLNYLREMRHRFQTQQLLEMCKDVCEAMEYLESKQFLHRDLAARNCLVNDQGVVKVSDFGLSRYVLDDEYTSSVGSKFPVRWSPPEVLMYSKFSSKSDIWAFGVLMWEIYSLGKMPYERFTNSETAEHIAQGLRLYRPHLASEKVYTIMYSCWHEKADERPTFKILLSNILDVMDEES
- test method notes: Btk enzyme activity, IMAP fluorescence polarization assay (Assay Method A)
Below, each entry is listed alongside its reported EC50.

May I ask what EC50 has been recorded for Nc1nccn2c([C@@H]3CCCN(C(=O)C4CC(F)(F)C4)C3)nc(-c3ccc(C(=O)Nc4cc(C(F)(F)F)ccn4)cc3)c12 [Example 83] ?
< 10 nM

May I ask what EC50 has been recorded for CN(C)C1(C(=O)N2CCC[C@@H](c3nc(-c4ccc(C(=O)Nc5cc(C(F)(F)F)ccn5)cc4)c4c(N)nccn34)C2)CC1 [Example 88] ?
10 to 100 nM
